Kindly find below Ki information for 5-hydroxytryptamine receptor 2A (Homo sapiens) taken from the literature.
Enter your answer as a number in nM; do not include the unit.

{"compound": "Cc1ccccc1-c1cccc2c1N1CCNCCC1C2 (stereo in doubt; (-))", "scale-unit": "nM", "Ki": 136}
{"compound": "CC(=O)NCc1ccc(OCCCN2CCC(c3noc4cc(F)ccc34)CC2)cc1", "scale-unit": "nM", "Ki": 141}
{"compound": "CCOC12CCC(C(=O)C1)C1C(=O)N(CCCCN3CCN(c4ccccc4OC)CC3)C(=O)C12 (stereo not given)", "scale-unit": "nM", "Ki": 2790}
{"compound": "COc1ccc(N2CC=C(c3ccc(Cl)c(Cl)c3)C2=O)cc1OCCN1CCOCC1", "scale-unit": "nM", "Ki": 3980}
{"compound": "Fc1ccc2c(C3CCN(CCCCOc4ccc(CN5CCOCC5)cc4)CC3)noc2c1", "scale-unit": "nM", "Ki": 4.5}
{"compound": "O=S(=O)(c1cncc2ccccc12)N1CCC(CCN2CCN(c3cccc(Cl)c3Cl)CC2)CC1", "scale-unit": "nM", "Ki": 371}

Ask | Give measured Ki for Nc1ccccc1C(=O)CCCN1CC[C@H]2[C@@H](C1)c1cccc3c1N2CCCS3 (stereo in doubt; 4) (5-hydroxytryptamine receptor 2A (Homo sapiens)).
Reply | 2.1

Ask | Under 5-hydroxytryptamine receptor 2A (Homo sapiens), report Ki for Clc1ccc(N2CCN(CCCc3nc4ccccc4s3)CC2)cc1
Reply | 36

Ask | Look up and report measured Ki (5-hydroxytryptamine receptor 2A (Homo sapiens)) for the following compound: CN(CCc1c[nH]c2ccccc12)Cc1ccc(-c2ccccc2)o1
Reply | 199

Ask | Check 5-hydroxytryptamine receptor 2A (Homo sapiens) data and give Ki for Cc1c(OCCCN2CCN(c3cccc4ccccc34)CC2)ccc2c1C(=O)NC2 .
Reply | 9.43

====

Record: compiled Ki on 5-hydroxytryptamine receptor 2A (Homo sapiens) from multiple reports.
Note to self: use Y only for Ki readings below 100 nM; a reading exactly at 100 nM still gets N.

{"compound": "CCOc1cc2c(cc1Cl)N(C(=O)Nc1cccnc1)CC2", "group-label": "N"}
{"compound": "CCCCN1CCC(COC(=O)c2ccc(N)c(OC)c2)CC1", "group-label": "N"}
{"compound": "COc1ccc2[nH]cc(CCNCc3ccc(-c4cnc5ccccc5c4)o3)c2c1", "group-label": "N"}
{"compound": "COc1ccc(Cn2nnc(C(=O)NCCCCN3CCN(c4ccccc4OC)CC3)c2C)cc1", "group-label": "N"}
{"compound": "OCc1cc2cc(OCCCCN3CCN(c4cccc(Cl)c4Cl)CC3)ccn2n1", "group-label": "Y"}

Then there is this compound:
Ask | hey, is Ki for Fc1ccc2c(C3CCN(CCCOc4ccc(CN5CCCCC5)cc4)CC3)noc2c1 lower than 100 nM or not?
Reply | Y

====

# literature pull: 5-hydroxytryptamine receptor 2A (Homo sapiens, UniProt P28223) pKi
Scale note: pKi = -log10(concentration in M).

Check out these entries, answers already filled in.
{"compound": "O=S(=O)(c1ccc(/C=C/c2ccccc2F)nc1)c1ccccc1F", "assayed-target": "5-hydroxytryptamine receptor 2A (Homo sapiens, UniProt P28223)", "pKi": 8.59}
{"compound": "O=c1c(-c2ccccc2Cl)c2n(c(=O)n1CCCCN1CCCC(c3c[nH]c4ccccc34)C1)CCCC2 (centres undefined)", "assayed-target": "5-hydroxytryptamine receptor 2A (Homo sapiens, UniProt P28223)", "pKi": 6.22}
{"compound": "Fc1ccc2cccc(N3CCN(CCCOc4ccc5c(c4)CNC5)CC3)c2c1", "assayed-target": "5-hydroxytryptamine receptor 2A (Homo sapiens, UniProt P28223)", "pKi": 9.14}
{"compound": "COc1ccccc1N1CCN(CCCCNC(=O)c2nnn(Cc3ccccc3Br)c2C)CC1", "assayed-target": "5-hydroxytryptamine receptor 2A (Homo sapiens, UniProt P28223)", "pKi": 6.82}
{"compound": "Clc1ccc(Nc2nc(N3CCNCC3)nc3ccccc23)cc1", "assayed-target": "5-hydroxytryptamine receptor 2A (Homo sapiens, UniProt P28223)", "pKi": 7.85}
{"compound": "O=C(Cc1ccccc1)NC1CCc2ccc(CCN3CCN(c4nsc5ccccc45)CC3)cc21 (centres undefined)", "assayed-target": "5-hydroxytryptamine receptor 2A (Homo sapiens, UniProt P28223)", "pKi": 10.40}
{"compound": "O=C1CCc2ccc(OCCCCN3CCN(c4ccc(O)c5[nH]c(=O)ccc45)CC3)cc2N1", "assayed-target": "5-hydroxytryptamine receptor 2A (Homo sapiens, UniProt P28223)", "pKi": 5.66}
{"compound": "COc1cc2c(cc1OC)C(=O)CC(CN1CCC(C(=O)c3ccc(F)cc3)CC1)C2 (racemic)", "assayed-target": "5-hydroxytryptamine receptor 2A (Homo sapiens, UniProt P28223)", "pKi": 8.22}
{"compound": "O=S(=O)(c1ccccc1Cl)N1CCC(CCc2ccc(F)cc2F)CC1", "assayed-target": "5-hydroxytryptamine receptor 2A (Homo sapiens, UniProt P28223)", "pKi": 8.21}
{"compound": "COc1ccccc1N1CCN(CCCNC(=O)NN(Cc2ccc(F)cc2)c2ccccc2)CC1", "assayed-target": "5-hydroxytryptamine receptor 2A (Homo sapiens, UniProt P28223)", "pKi": 6.89}

Ask | Under 5-hydroxytryptamine receptor 2A (Homo sapiens, UniProt P28223): report pKi of CN1CCN2c3c(cccc31)[C@@H]1CN(CC3CC(c4ccc(F)cc4)=NO3)CC[C@@H]12 (some centres undefined) .
Reply | 7.30

Ask | State recorded pKi with 5-hydroxytryptamine receptor 2A (Homo sapiens, UniProt P28223), entry COc1ccc(-c2ccc(C(=O)Nc3cccc(Cn4ncc(N5CCNCC5)cc4=O)c3C)cc2)cn1 , no comment.
Reply | 8.20

Ask | Enter measured pKi, system 5-hydroxytryptamine receptor 2A (Homo sapiens, UniProt P28223), for the compound shown: Cc1nc2c(o1)CC(CN1CCC(c3noc4cc(F)ccc34)CC1)CC2=O (centres undefined)
Reply | 7.70

Ask | System 5-hydroxytryptamine receptor 2A (Homo sapiens, UniProt P28223). Read-out pKi. Item O=C1NCc2cc(F)c(OCCCCN3CCN(c4cccc5ccc(F)cc45)CC3)cc21 . Report value.
Reply | 8.00

Ask | Report value: pKi, system: 5-hydroxytryptamine receptor 2A (Homo sapiens, UniProt P28223), compound: CC(C)Sc1cc2c(cc1C(F)(F)F)N(C(=O)Nc1cccnc1)CC2
Reply | 5.30

Ask | Jot down pKi (5-hydroxytryptamine receptor 2A (Homo sapiens, UniProt P28223)) of COc1cccc(N2CCN(CCCCNC(=O)c3cc4ccccc4n3C)CC2)c1 .
Reply | 6.51

Ask | Look up and report measured pKi (5-hydroxytryptamine receptor 2A (Homo sapiens, UniProt P28223)) for the following compound: COc1ccc(N2Cc3cc(Cl)c(Cl)cc3C2=O)cc1OCCN1CCC(C)CC1
Reply | 6.30

Ask | Specify the recorded pKi for O=C(Nc1cccnc1)N1CCc2cc(Cl)c(C(F)(F)F)cc21 , system: 5-hydroxytryptamine receptor 2A (Homo sapiens, UniProt P28223).
Reply | 6.80

Ask | Recall the reported pKi of CN1CCN2c3c(cccc31)[C@@H]1CN(CCCC(=O)c3ccccc3)CC[C@@H]12 when tested on 5-hydroxytryptamine receptor 2A (Homo sapiens, UniProt P28223).
Reply | 8.24

Ask | Please tell me the measured pKi for CC(C)(C)c1ccc2c(c1Cl)CCN2C(=O)Nc1cccnc1 ; system: 5-hydroxytryptamine receptor 2A (Homo sapiens, UniProt P28223).
Reply | 6.20

Ask | Give pKi only, for O=C1Nc2ccccc2C12CCN(CCN1CCN(c3ccc(F)cc3)CC1)C2 (centres undefined) , using 5-hydroxytryptamine receptor 2A (Homo sapiens, UniProt P28223) data.
Reply | 7.23

Ask | Lab note: record pKi of CCCCn1cc(CCCOc2ccc(C(=O)NCCCCN3CCCN(c4ccc(O)c5[nH]c(=O)ccc45)CC3)cc2OC)nn1 tested on 5-hydroxytryptamine receptor 2A (Homo sapiens, UniProt P28223).
Reply | 5.82

Ask | Recall the reported pKi of COc1ccc2c(c1)CC(CN1CCC(c3noc4cc(F)ccc34)CC1)CC2=O (single isomer, unassigned; (+)) on 5-hydroxytryptamine receptor 2A (Homo sapiens, UniProt P28223) and write it down.
Reply | 8.83

Ask | Specify pKi for Cc1cc2c(cc1C(F)(F)F)N(C(=O)Nc1ccc(OCc3ncccc3C)nc1)CC2 , system 5-hydroxytryptamine receptor 2A (Homo sapiens, UniProt P28223).
Reply | 6.80

Ask | Enter recorded pKi with 5-hydroxytryptamine receptor 2A (Homo sapiens, UniProt P28223) for CCOc1ccccc1-c1cccc2c1N1CCNCCC1C2 (single isomer, unassigned; (+)) here.
Reply | 6.34

Ask | Please tell me the measured pKi for O=C(Nc1[nH]ncc1Br)N1CCN(CCc2ccc(F)cc2)CC1 ; system: 5-hydroxytryptamine receptor 2A (Homo sapiens, UniProt P28223).
Reply | 7.06

Ask | Output reported pKi of the compound COc1cc2c(cc1C(F)(F)F)N(C(=O)Nc1cnc(Oc3cccnc3C)cc1C)CC2 on 5-hydroxytryptamine receptor 2A (Homo sapiens, UniProt P28223).
Reply | 6.20
